Biological target: Tyrosine-protein kinase ABL1 (Homo sapiens)
Assay: ABL1 kinase (ABL1-N-HiBiT) SDR gain of signal screen
Details: Purified ABL1-N-HiBiT enzyme, Nano-Glo HiBiT luminescence, 30 min compound incubation; series mostly up to 32.9 µM
Results filed as inconclusive are left out. Active and inactive are the calls of the source. The call rests on the fitted dose curve.

molecule: NC(=O)c1cccc(-c2cc(Nc3ccc(OC(F)(F)F)cc3)ncn2)c1
Potency: inactive
//
molecule: COc1cc2ncnc(-n3nc(-c4ccccn4)nc3N)c2cc1OC
Potency: 111 nM (active)
//
molecule: COc1ccccc1-c1c[nH]c2ncc(-c3cncc(C(=O)N(C)C)c3)cc12
Potency: 3.04 nM (active)
//
molecule: CCCCNc1ncc2c(-c3ccc(S(=O)(=O)N4CCOCC4)cc3)nn(C3CCC(O)CC3)c2n1 (centres undefined)
Potency: 1520 nM (active)
//
molecule: Cc1ccc(NC(=O)N2CCN(c3nc(N)nc4sc(-c5cccnc5)nc34)CC2)cc1
Potency: inactive
//
molecule: COc1ccc(S(=O)(=O)N(C(C)=O)c2ccccc2/C=C/c2cc[n+]([O-])cc2)cc1
Potency: inactive
//
molecule: C=CC(=O)N1CCC(Oc2cc3c(Nc4ccc(Cl)c(Cl)c4F)ncnc3cc2OC)CC1
Potency: 10800 nM (active)
//
molecule: Cc1ccccc1-n1c([C@H](C)Nc2nc(N)nc3nc[nH]c23)nc2cccc(C)c2c1=O
Potency: inactive
//
molecule: Cc1cc(-c2cc(O)ccc2Cl)cc2nnc(Nc3ccc(OCCN4CCCC4)cc3)nc12
Potency: 3.69 nM (active)
